biological target: androgen receptor (AR-LBD) (Rattus norvegicus, UniProt P15207); construct: 5 μL of 2×AR-LBD/Fluoromone AL Red Complex contained in the kit; purchased Invitrogen; assay: Evaluation of androgen receptor affinity (PolarScreen Androgen Receptor Competitor Assay Kit, Red; fluorescence polarization); conditions: 22° C. for 5 hours, relative to binding rate of 1 μM DHT, read-out: AR affinity (pEC50) (converted)
Sequence (P15207 651-882 limits assumed): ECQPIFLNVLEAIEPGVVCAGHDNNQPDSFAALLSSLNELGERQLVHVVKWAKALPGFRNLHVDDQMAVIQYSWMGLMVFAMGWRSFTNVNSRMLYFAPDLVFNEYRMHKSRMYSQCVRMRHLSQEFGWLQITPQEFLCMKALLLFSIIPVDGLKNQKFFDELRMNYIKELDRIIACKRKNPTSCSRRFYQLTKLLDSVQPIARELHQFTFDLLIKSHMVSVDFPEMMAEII
MEASURED QUANTITY: EC50

- COc1ccc(CN(c2ccc(C#N)cc2)c2nc(C(=O)NS(C)(=O)=O)c(C)s2)nn1 [Compound 516]: > 2000 nM
- Cc1sc(N(c2ccc(C#N)cc2)[C@H](CO)c2ccccc2)nc1C(=O)NS(C)(=O)=O [Compound 467]: > 2000 nM
- Cc1sc(N(Cc2ccccc2)c2ccnc3ccccc23)nc1C(=O)NS(C)(=O)=O [Example 236]: > 2000 nM
- Cc1sc(N(Cc2ccccc2)c2ccc(OCCO)cc2)nc1C(=O)NS(C)(=O)=O [Example 211]: > 2000 nM
- CNC(=O)COc1ccc(CN(c2ccc(C#N)cc2)c2nc(C(=O)NS(C)(=O)=O)c(C)s2)cc1 [Compound 574]: > 2000 nM
- Cc1sc(N(CCc2cccc(S(C)(=O)=O)c2)Cc2ccccc2)nc1C(=O)NS(C)(=O)=O [Compound 331]: > 2000 nM
